Molecular target: 3-dehydroquinate dehydratase (Streptomyces coelicolor (strain ATCC BAA-471 / A3(2) / M145))
Sequence (P15474 whole entry): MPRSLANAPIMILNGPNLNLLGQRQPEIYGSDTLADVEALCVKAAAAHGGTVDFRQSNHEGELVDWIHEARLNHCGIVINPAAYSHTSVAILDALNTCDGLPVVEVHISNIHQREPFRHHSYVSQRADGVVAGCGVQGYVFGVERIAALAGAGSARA
Test: Competitive reversible inhibition of Strepotomyces coelicolor type 2 dehydroquinase expressed in Escherichia coli BL21 (DE3) cells assessed as enone-carboxylate chromophore of 3-dehydroshikimate formation using 3-dehydroquinate as substrate preincubated with enzyme for 3 mins prior to substrate addition by UV spectrophotometric assay
Decide using Ki alone. Strictly below 70 nM: 1 (yes). Equal to or above 70 nM: 0 (no).

Does this compound meet the criterion Ki < 70 nM? `O=C(O)c1cccc(-n2cc(C3=C[C@@](O)(C(=O)O)C[C@@H](O)[C@@H]3O)nn2)c1`
0 (no)

Does this compound meet the criterion Ki < 70 nM? `O=C(O)[C@]1(O)C=C(c2cn(-c3cccc([N+](=O)[O-])c3)nn2)[C@@H](O)[C@H](O)C1`
0 (no)

Does this compound meet the criterion Ki < 70 nM? `O=C(O)[C@]1(O)C=C(c2cn(Cc3ccco3)nn2)[C@@H](O)[C@H](O)C1`
0 (no)

Does this compound meet the criterion Ki < 70 nM? `O=C(O)[C@]1(O)C=C(c2cn(Cc3cccs3)nn2)[C@@H](O)[C@H](O)C1`
0 (no)

Does this compound meet the criterion Ki < 70 nM? `O=C(O)[C@]1(O)C=C(c2cn(-c3ccc(F)cc3)nn2)[C@@H](O)[C@H](O)C1`
1 (yes)

====

target: 3-dehydroquinate dehydratase (Helicobacter pylori (strain ATCC 700392 / 26695) (Campylobacterpylori), UniProt Q48255); test: Competitive reversible inhibition of Helicobacter pylori type 2 dehydroquinase expressed in Escherichia coli BL21 (DE3) cells assessed as enone-carboxylate chromophore of 3-dehydroshikimate formation using 3-dehydroquinate as substrate preincubated with enzyme for 3 mins prior to substrate addition by UV spectrophotometric assay
Sequence (Q48255 whole entry): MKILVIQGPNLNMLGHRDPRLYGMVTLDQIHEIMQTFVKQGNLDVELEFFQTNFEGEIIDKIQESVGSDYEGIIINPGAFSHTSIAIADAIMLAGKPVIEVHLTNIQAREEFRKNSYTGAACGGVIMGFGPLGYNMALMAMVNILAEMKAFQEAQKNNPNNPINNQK
Would you kindly list Ki for each of these molecules?
A number alone suffices; assume nM.

Entry `O=C(O)[C@]1(O)C=C(c2cn(-c3cccc([N+](=O)[O-])c3)nn2)[C@@H](O)[C@H](O)C1` , Ki reported as 538

Entry `O=C(O)[C@]1(O)C=C(c2cn(-c3cccnc3)nn2)[C@@H](O)[C@H](O)C1` , Ki reported as 375

Entry `O=C(O)[C@]1(O)C=C(c2cn(-c3ccc(F)cc3)nn2)[C@@H](O)[C@H](O)C1` , Ki reported as 561

Entry `O=C(O)c1cccc(-n2cc(C3=C[C@@](O)(C(=O)O)C[C@@H](O)[C@@H]3O)nn2)c1` , Ki reported as 5780

Entry `O=C(O)[C@]1(O)C=C(c2cn(Cc3ccco3)nn2)[C@@H](O)[C@H](O)C1` , Ki reported as 2200

Entry `O=C(O)[C@]1(O)C=C(c2cn(Cc3cccs3)nn2)[C@@H](O)[C@H](O)C1` , Ki reported as 925

Entry `O=C(O)[C@]1(O)C=C(c2cn(-c3ccccc3O)nn2)[C@@H](O)[C@H](O)C1` , Ki reported as 157

Entry `O=C(O)[C@]1(O)C=C(c2cn(-c3ccccc3)nn2)[C@@H](O)[C@H](O)C1` , Ki reported as 225

====

Target: UniProtKB P9WPX7
Sequence (P9WPX7 whole entry): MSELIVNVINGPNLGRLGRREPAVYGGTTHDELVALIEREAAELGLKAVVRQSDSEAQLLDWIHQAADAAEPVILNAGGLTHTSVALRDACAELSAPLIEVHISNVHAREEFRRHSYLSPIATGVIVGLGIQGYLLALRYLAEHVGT
MEASURED_ENDPOINT: log10(Ki) (log10 of the value in nM)
Log10 applied to Ki; unit prior to transform: nM.

Summary line: `O=C(O)[C@]1(O)C=C(c2cn(Cc3ccco3)nn2)[C@@H](O)[C@H](O)C1` , UniProtKB P9WPX7, reported log10(Ki) = 3.33

Summary line: `O=C(O)[C@]1(O)C=C(c2cn(-c3ccc(F)cc3)nn2)[C@@H](O)[C@H](O)C1` , UniProtKB P9WPX7, reported log10(Ki) = 2.19

Summary line: `O=C(O)[C@]1(O)C=C(c2cn(-c3ccccc3)nn2)[C@@H](O)[C@H](O)C1` , UniProtKB P9WPX7, reported log10(Ki) = 1.59

Summary line: `O=C(O)[C@]1(O)C=C(c2cn(Cc3cccs3)nn2)[C@@H](O)[C@H](O)C1` , UniProtKB P9WPX7, reported log10(Ki) = 3.20

Summary line: `O=C(O)[C@]1(O)C=C(c2cn(-c3cccnc3)nn2)[C@@H](O)[C@H](O)C1` , UniProtKB P9WPX7, reported log10(Ki) = 2.13

Summary line: `O=C(O)[C@]1(O)C=C(c2cn(-c3cccc([N+](=O)[O-])c3)nn2)[C@@H](O)[C@H](O)C1` , UniProtKB P9WPX7, reported log10(Ki) = 2.36

Summary line: `O=C(O)[C@]1(O)C=C(c2cn(-c3ccccc3O)nn2)[C@@H](O)[C@H](O)C1` , UniProtKB P9WPX7, reported log10(Ki) = 2.52

Summary line: `O=C(O)c1cccc(-n2cc(C3=C[C@@](O)(C(=O)O)C[C@@H](O)[C@@H]3O)nn2)c1` , UniProtKB P9WPX7, reported log10(Ki) = 3.50

====

Molecular target: 3-dehydroquinate dehydratase (Streptomyces coelicolor (strain ATCC BAA-471 / A3(2) / M145), UniProt P15474)
Sequence (P15474 whole entry): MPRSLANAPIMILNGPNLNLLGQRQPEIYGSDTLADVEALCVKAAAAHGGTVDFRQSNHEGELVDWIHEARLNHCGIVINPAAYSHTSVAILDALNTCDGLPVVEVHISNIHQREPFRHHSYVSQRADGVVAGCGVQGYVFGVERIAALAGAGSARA
Assay: Competitive reversible inhibition of Strepotomyces coelicolor type 2 dehydroquinase expressed in Escherichia coli BL21 (DE3) cells assessed as enone-carboxylate chromophore of 3-dehydroshikimate formation using 3-dehydroquinate as substrate preincubated with enzyme for 3 mins prior to substrate addition by UV spectrophotometric assay
Would you kindly list pKi for each of these compounds?
pKi is a log-scale quantity: -log10 of the concentration expressed in molar.

Entry `O=C(O)[C@]1(O)C=C(c2cn(-c3cccnc3)nn2)[C@@H](O)[C@H](O)C1` , pKi reported as 8.24

Entry `O=C(O)[C@]1(O)C=C(c2cn(-c3ccccc3O)nn2)[C@@H](O)[C@H](O)C1` , pKi reported as 7.32

Entry `O=C(O)[C@]1(O)C=C(c2cn(-c3ccccc3)nn2)[C@@H](O)[C@H](O)C1` , pKi reported as 8.24

Attribution: ChEMBL document CHEMBL3217657
